Observed pIC50, system Tyrosine-protein kinase Lyn (Homo sapiens).
pIC50: −log10 of the molar value.

Worked set:
1) N=c1oc2c(O)cccc2cc1C(=O)Nc1ccccc1O < 4.17
2) N=c1oc2c(O)c(O)ccc2cc1C(=O)Nc1ccc(O)cc1 < 4.19
3) N=c1oc2c(O)c(O)ccc2cc1C(=O)Nc1ccccc1O < 4.19
4) N=c1oc2c(O)cccc2cc1C(=O)Nc1cccc(O)c1 > 4.47
5) N=c1oc2c(O)c(O)ccc2cc1C(=O)Nc1ccccc1CO < 4.21

We now examine a further molecule.
Checklist item: pIC50 tested on Tyrosine-protein kinase Lyn (Homo sapiens), entry N=c1oc2c(O)cccc2cc1C(=O)Nc1cccc(CO)c1 , value? 4.19
